Listed binders paired with reported kon
biological target: T1, cynomolgus monkey BCMA (cynomolgus monkey, UniProt A0A2K5UD97 1-53); assay: SPR, IgG on chip, cyBCMA analyte, 37C
T1 construct: Soluble analyte in SPR; construct not described; also called cyBCMA; Cyno BCMA
T1 sequence (A0A2K5UD97 entry or part of it): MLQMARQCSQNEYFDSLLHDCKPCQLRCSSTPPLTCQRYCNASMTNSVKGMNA
// note: answer is a bare numeric in M⁻¹ s⁻¹

For orientation, consider the following solved cases.
binder	endpoint-label	unit-descriptor	test-value
L3.PY/L3.KY/H3.YA (antibody, V domains shown, IgG) VH: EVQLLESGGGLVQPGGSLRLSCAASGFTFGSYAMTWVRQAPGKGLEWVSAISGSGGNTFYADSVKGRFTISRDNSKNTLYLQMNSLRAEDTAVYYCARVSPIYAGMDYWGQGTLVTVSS VL: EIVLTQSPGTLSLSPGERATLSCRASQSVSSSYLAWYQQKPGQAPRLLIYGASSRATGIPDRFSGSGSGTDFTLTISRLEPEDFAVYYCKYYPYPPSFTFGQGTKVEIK	kon	M⁻¹ s⁻¹	1.84e+06
L3.PY/L1.FF/H3.TAQ (antibody, V domains shown, IgG) VH: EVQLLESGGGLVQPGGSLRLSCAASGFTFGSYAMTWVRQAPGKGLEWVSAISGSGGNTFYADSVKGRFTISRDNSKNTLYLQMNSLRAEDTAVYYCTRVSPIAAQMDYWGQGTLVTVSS VL: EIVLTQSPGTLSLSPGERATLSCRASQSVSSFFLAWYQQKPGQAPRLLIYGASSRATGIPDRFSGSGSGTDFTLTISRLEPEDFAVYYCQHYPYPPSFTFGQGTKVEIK	kon	M⁻¹ s⁻¹	2.32e+06

Q. // returns reported kon for input L3.PY/L1.FF/H3.YA (antibody, V domains shown, IgG) VH: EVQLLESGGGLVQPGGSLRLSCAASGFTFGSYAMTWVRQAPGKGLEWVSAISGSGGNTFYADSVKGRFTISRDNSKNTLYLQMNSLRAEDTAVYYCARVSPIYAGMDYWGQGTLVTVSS VL: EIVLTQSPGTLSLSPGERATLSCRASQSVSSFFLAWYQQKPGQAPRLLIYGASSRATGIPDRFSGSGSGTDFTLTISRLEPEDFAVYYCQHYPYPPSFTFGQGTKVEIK
A. 2.46e+06
